Origin of values: paper PMC10397247

tested-target: T1, P4
T1 chain: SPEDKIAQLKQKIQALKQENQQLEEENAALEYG
assay-protocol: two-hybrid library CC1;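 also: natural log of median RNA to DNA barcode read ratio; higher means stronger binding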
conditions-used: mean of both orientations
# note: exactly -0.04 is not below, so it is NO; use YES for interaction score strictly under it

binder | qualitative-label
KNAQLKEKIAALKEKIQQLKEENQALEYG [P12] | YES
EIQQLEEEISQLEQKNSQLKEKNQQLKYG [P3mS] | YES
KNAQLKEENAALEEKIQQLKEKIQALKYG [P10] | YES
SPEDEIQQLEEEIAQLEQKNAALKEKNQALKYG [P3] | NO
ENQALEQEIAQLEQEIAALEQKNAQLKYG [P11] | YES
